Ref: the supplement of paper PMC6555819

Test system: LXRa homodimer (NR concentration 270 nM)
Assay Text: PBM binding z-score (relative to random genomic background probes); higher = stronger binding; sequences stand for … in GC…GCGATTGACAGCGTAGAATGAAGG
Measured PBM binding z-score of individual entries

Previously resolved entries follow.
{"Sequence Text": "ACTATTAGTTGAGACGAGGGCACCCGATAGGTTG", "Result": -0.0764}
{"Sequence Text": "TAGCCTAGATCATTCAGGGGCCAGTATAGAAAGC", "Result": -0.351}
{"Sequence Text": "CTCGAAAAGTCGTGCTCAGGTGAGTATACCAAAC", "Result": -0.0855}
{"Sequence Text": "TCGAGTAGGTTAGGGGCATTCAAAATGGCGTCGA", "Result": -0.23}
{"Sequence Text": "TCAGACAGGTGAAGGCAACTCAGGTACGCAGTCG", "Result": -0.307}
{"Sequence Text": "TCATATAGGTGAATGCTAGGTGAAAGTCCGATCT", "Result": -0.0779}

QUERY: Given the entry ACTATTAGTTGACTTGGGGCAACCGATACGACGC , what PBM binding z-score was observed with LXRa homodimer (NR concentration 270 nM)?
RESULT: 0.238

QUERY: Hi! What's the reported PBM binding z-score for GCTGCTAGGTCAACTTATGGTCAGCTAAAGCTCG on LXRa homodimer (NR concentration 270 nM)?
RESULT: 0.539

QUERY: Form: Entry = CGTCCAAGGGCATAGGAGGTCAGTGAAGACAGAT | System = LXRa homodimer (NR concentration 270 nM) | PBM binding z-score = ____
RESULT: 1.32

QUERY: Return PBM binding z-score measured with LXRa homodimer (NR concentration 270 nM) given this sequence: GCTAGTTGATCAGTAAAAGGTCACACACCGGTCG
RESULT: 4.21

QUERY: Give recorded PBM binding z-score with LXRa homodimer (NR concentration 270 nM) for the following sequence: TCATATAGGTAAATGCTAGTTGAAAGTCCGATCT
RESULT: 0.081

###

Tested on: RARa:RXR (NR concentration 270 nM, RXRa partner concentration 90 nM)
Assay Text: PBM binding z-score (relative to random genomic background probes); higher = stronger binding; sequences stand for … in GC…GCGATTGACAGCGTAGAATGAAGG
Endpoint Label: PBM binding z-score
Answer with a bare number; do not write a unit.

Example sequences with recorded PBM binding z-score:
{"Sequence Text": "ACTAGCAGGCCAAGTTTGGGTCACTTAAACAAAG", "PBM binding z-score": 1.6}
{"Sequence Text": "ACTATTAGTTGAGACGAAGGCAACCGATAGGTTG", "PBM binding z-score": -0.552}
{"Sequence Text": "GCGACTGGGGCATCAGCAAGTTACCATAACTTAA", "PBM binding z-score": -0.454}
{"Sequence Text": "ATCGCAAGGTCGACGAGGTGAGTATACACCGTTT", "PBM binding z-score": 2.55}
{"Sequence Text": "CGTCCTAGGTCAAAGGTCAGTGAAGAGATGACGG", "PBM binding z-score": 7.96}

Next sequence, please.
QUERY: For the sequence shown here, ACTATTAGTTGAGACGAGGGCAAACGATAGGTTG , give the reported PBM binding z-score.
RESULT: 0.637

###

Each entry below lists one item and its recorded PBM binding z-score value.
Test system: FXR:RXRa (NR concentration 270 nM, RXRa partner concentration 90 nM)
Assay Text: PBM binding z-score (relative to random genomic background probes); higher = stronger binding; sequences stand for … in GC…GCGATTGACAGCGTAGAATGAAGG
Lab note: write the figure by itself, no unit.

{"Sequence Text": "ATATGTAGGTTAAGGGTCACTCAGGTTGGTTCGC", "PBM binding z-score": 4.78}
{"Sequence Text": "ACTATTAGTTGAGACGTGGGCAACCGATAGGTTG", "PBM binding z-score": -0.344}
{"Sequence Text": "ATACCAAGGTGATCTTGAGGTCGTTGATACTAAC", "PBM binding z-score": 2.36}

QUERY: Name the reported PBM binding z-score value associated with the sequence ACTTACGGGTCAACGAGGTTAAAGCACGCGTATA
RESULT: 7.3

QUERY: PBM binding z-score lookup needed for TCTATTAGTTGAAGTGCAACCGACGAGTCCGTTT , thanks.
RESULT: 0.802

QUERY: For GTACTAAGGTGAATAGGTCGTTGATGAGTAGGCG , what is its reported PBM binding z-score?
RESULT: 1.68

QUERY: State the recorded PBM binding z-score for this entry: TAGCCTAGGTCATGGGCCAGTATCCCACGCGAAC
RESULT: 4.49

QUERY: Sample GGAACGAGGGCATTCTAGTTGATAGCATGGCGAT — what was its PBM binding z-score?
RESULT: 1.44

QUERY: Field request: PBM binding z-score | item: CCAGACAGGTGAAAGTTAACTCAGTCTGGTACGC
RESULT: -0.0765

QUERY: Sample AGTCGAAGTTCAGGACGAGGTAACGTAAAGCACG — what was its PBM binding z-score?
RESULT: 1.05

QUERY: Look up PBM binding z-score for this sequence: ATATGTAGGTTAGCCGGGGTCATTCAGACTAGGC
RESULT: 5.13

QUERY: Entry under review: CCAGACAGGTGAGAAGGTAAATCAGCCTCGATTA . Reported PBM binding z-score?
RESULT: 0.109

###

List of PBM binding z-score values.
System: PXR homodimer (NR concentration 270 nM)
Assay Text: PBM binding z-score (relative to random genomic background probes); higher = stronger binding; sequences stand for … in GC…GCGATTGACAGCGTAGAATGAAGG
Keep it simple and answer with nothing but the number.

Solved cases below.
{"Sequence Text": "CCGACTGGGGGAGAAAGGTTACCATACCATCCGG", "PBM binding z-score": 0.501}
{"Sequence Text": "TAGCCTAGGTCAGATGGGGCCAGTATACGCTATA", "PBM binding z-score": -0.272}

QUERY: Which measured PBM binding z-score value corresponds to GGAACGACGGCAAGTTGATAGCAGAGTTTGATGG ?
RESULT: 0.0619

###

Test system: LXRa homodimer (NR concentration 270 nM)
Assay Text: PBM binding z-score (relative to random genomic background probes); higher = stronger binding; sequences stand for … in GC…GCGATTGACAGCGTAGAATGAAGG
Mark 1 (yes) for reported PBM binding z-score of -0.4 or greater; mark 0 (no) for anything smaller.

{"Sequence Text": "ATCTCTAGGTAACAAGTTCAGTGAGAGAGAGGAC", "Group": "1 (yes)"}
{"Sequence Text": "CGTCAAAGATCAACTAAGGTAACGTAAAGCACGC", "Group": "1 (yes)"}

QUERY: Could you tell me if the measured PBM binding z-score of AGAACGAGGGCAATGAGTTGATGGCACGGGTGGC reaches -0.4 or more?
RESULT: 0 (no)

QUERY: Confirm if PBM binding z-score reported for the sequence CCTCGGAGGACAGAAGGGCAGAGCTGTCCGCTTT is -0.4 or above.
RESULT: 0 (no)

QUERY: hey, is PBM binding z-score for this one >= -0.4? GCTAGTTGGTCAGTAAAAGGTCACACCCCGGTCG
RESULT: 1 (yes)

QUERY: Please check the record CCTATTAGTTTACCATAAGGGCAACCGAAGCTCG and state if its PBM binding z-score is at or above -0.4.
RESULT: 1 (yes)

QUERY: Can TCTCGGAGGACACGATGGTCAGAGCTTTCCAGAG be said to have PBM binding z-score at or above -0.4?
RESULT: 0 (no)

QUERY: Please tell me: is the sequence TCTTGTAGATCAGCAGGTTAAGAACGCTGGCCAA at or over -0.4 in terms of PBM binding z-score?
RESULT: 1 (yes)

###

Test system: RARb homodimer (NR concentration 270 nM)
Assay Text: PBM binding z-score (relative to random genomic background probes); higher = stronger binding; sequences stand for … in GC…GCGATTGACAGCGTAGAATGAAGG
Endpoint Label: PBM binding z-score
Write the value as a bare number.

{"Sequence Text": "ATCGAAAGGTGGAAGGTGAGTATACCCACCCGAA", "Endpoint Label": "PBM binding z-score", "Result Number": 0.363}
{"Sequence Text": "CCTACTGGGCCATTCATAGGTCATTGATCATATG", "Endpoint Label": "PBM binding z-score", "Result Number": 2.77}

QUERY: // lookup PBM binding z-score | system=RARb homodimer (NR concentration 270 nM) | key= AGACTGAGGTTAAGATCAGGGAAACAGAATACAT
RESULT: 0.774

QUERY: Value wanted: PBM binding z-score (RARb homodimer (NR concentration 270 nM)) of entry TCTCGGAGGACAGGAAAGGTCAGAGCTCGACATC
RESULT: 4.65

QUERY: Given the entry CAAACTAGGTCTAGGTCAAAGTCGGTTTGTGCCA , what PBM binding z-score was observed with RARb homodimer (NR concentration 270 nM)?
RESULT: 2.76
